# System: K98450-129-R-PDC complex spheroid growth, percent test/control
# procedure.details: Anticancer human tumor K98450-129-R-PDC patient-derived colon adenocarcinoma cell line growth inhibition [RAS]
# experimental.parameters: second compound 0.00949 µM; first compound 0.1 µM; stronger effect = lower value
outcome.measure: viability, T/C

- compound: "CC(=O)OC12COC1CC(O)C1(C)C(=O)C(O)C3=C(C)C(OC(=O)C(O)C(NC(=O)OC(C)(C)C)c4ccccc4)CC(O)(C(OC(=O)c4ccccc4)C21)C3(C)C (centres undefined) + CCn1c(-c2cccnc2C(C)OC)c2c3cc(ccc31)N1CCOC(CC(NC(=O)C(C(C)C)N(C)C(=O)C3(F)CCN(C(=O)C#CC(C)(C)N(C)C)CC3)C(=O)N3CCCC(N3)C(=O)OCC(C)(C)C2)C1"
  viability, T/C: "25.5%"

Please report the recorded viability, T/C for CCN1CCN(Cc2ccc(Nc3ncc(F)c(-c4cc(F)c5nc(C)n(C(C)C)c5c4)n3)nc2)CC1 + CCn1c(-c2cc(N3CCN(C)CC3)cnc2C(C)OC)c2c3cc(ccc31)-c1csc(n1)CC(NC(=O)C1CC1C)C(=O)N1CCCC(N1)C(=O)OCC(C)(C)C2 . 47.7%

Please report the recorded viability, T/C for NC1c2ccccc2OC12CCN(c1cnc3c(N4CCCc5ncccc54)n[nH]c3n1)CC2 (centres undefined) + CCn1c(-c2cc(N3CCN(C)CC3)cnc2C(C)OC)c2c3cc(ccc31)-c1csc(n1)CC(NC(=O)C1CC1C)C(=O)N1CCCC(N1)C(=O)OCC(C)(C)C2 . 11.7%

Please report the recorded viability, T/C for CC(Nc1ccc2c(c1)OCCn1cc(N3C(=O)OCC3C(F)F)nc1-2)C(N)=O (centres undefined) + CCn1c(-c2cc(N3CCN(C)CC3)cnc2C(C)OC)c2c3cc(ccc31)-c1csc(n1)CC(NC(=O)C1CC1C)C(=O)N1CCCC(N1)C(=O)OCC(C)(C)C2 . 74.8%

---

# Tested on: K98450-129-R-PDC complex spheroid growth, percent test/control
# procedure.details: Anticancer human tumor K98450-129-R-PDC cell line growth inhibition [RAS];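 note: luminescence used as a proxy for viable cell amount; spheroids exposed to agents for seven days before the viability readout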
# experimental.parameters: second compound 1 µM; first compound 0.1 µM; stronger effect = lower value
Reported values of viability, T/C for individual entries
Output spec: scalar in %, unitless text.

Worked cases, answers included:
- molecule: "C=CC(=O)N1CCN(c2nc(OCC3CCCN3C)nc3c(F)c(-c4nc(N)cc(C)c4C(F)(F)F)c(Cl)cc23)C(C)C1 (configuration not stated) + C#Cc1c(F)ccc2cc(O)cc(-c3ncc4c(N5CC6CCC(C5)N6)nc(OCC56CCCN5CC(F)C6)nc4c3F)c12"
  viability, T/C, %: 50.2
- molecule: "CC(C)n1nc(-c2ccc3oc(N)nc3c2)c2c(N)ncnc21 + C#Cc1c(F)ccc2cc(O)cc(-c3ncc4c(N5CC6CCC(C5)N6)nc(OCC56CCCN5CC(F)C6)nc4c3F)c12"
  viability, T/C, %: 74.7
- molecule: "CC(C)NCC(C(=O)N1CCN(c2ncnc3c2C(C)CC3O)CC1)c1ccc(Cl)cc1 (configuration not stated) + C#Cc1c(F)ccc2cc(O)cc(-c3ncc4c(N5CC6CCC(C5)N6)nc(OCC56CCCN5CC(F)C6)nc4c3F)c12"
  viability, T/C, %: 96.8
- molecule: "C[C@@H](NC(=O)c1ncnc(N)c1Cl)c1ncc(C(=O)Nc2cc(C(F)(F)F)c(Cl)cn2)s1 + C=CC(=O)N1CCN(c2nc(OCC3CCCN3C)nc3c(F)c(-c4nc(N)cc(C)c4C(F)(F)F)c(Cl)cc23)C(C)C1"
  viability, T/C, %: 41.3
- molecule: "O=C(c1ccc(F)c(F)c1Nc1ccc(I)cc1F)N1CC(O)([C@@H]2CCCCN2)C1 + C=CC(=O)N1CCN(c2nc(OCC3CCCN3C)nc3c(F)c(-c4nc(N)cc(C)c4C(F)(F)F)c(Cl)cc23)C(C)C1"
  viability, T/C, %: 9.12

GET /values?readout=viability, T/C&system=K98450-129-R-PDC complex spheroid growth, percent test/control&item= NC1c2ccccc2OC12CCN(c1cnc3c(N4CCCc5ncccc54)n[nH]c3n1)CC2 (configuration not stated) + C#Cc1c(F)ccc2cc(O)cc(-c3ncc4c(N5CC6CCC(C5)N6)nc(OCC56CCCN5CC(F)C6)nc4c3F)c12 65.2

GET /values?readout=viability, T/C&system=K98450-129-R-PDC complex spheroid growth, percent test/control&item= CCN1CCN(Cc2ccc(Nc3ncc(F)c(-c4cc(F)c5nc(C)n(C(C)C)c5c4)n3)nc2)CC1 + C#Cc1c(F)ccc2cc(O)cc(-c3ncc4c(N5CC6CCC(C5)N6)nc(OCC56CCCN5CC(F)C6)nc4c3F)c12 82.8

GET /values?readout=viability, T/C&system=K98450-129-R-PDC complex spheroid growth, percent test/control&item= CCN1CCN(Cc2ccc(Nc3ncc(F)c(-c4cc(F)c5nc(C)n(C(C)C)c5c4)n3)nc2)CC1 + C=CC(=O)N1CCN(c2nc(OCC3CCCN3C)nc3c(F)c(-c4nc(N)cc(C)c4C(F)(F)F)c(Cl)cc23)C(C)C1 24.3

GET /values?readout=viability, T/C&system=K98450-129-R-PDC complex spheroid growth, percent test/control&item= C[C@@H](NC(=O)c1ncnc(N)c1Cl)c1ncc(C(=O)Nc2cc(C(F)(F)F)c(Cl)cn2)s1 + C#Cc1c(F)ccc2cc(O)cc(-c3ncc4c(N5CC6CCC(C5)N6)nc(OCC56CCCN5CC(F)C6)nc4c3F)c12 115

---

# Test system: K98450-129-R-PDC complex spheroid growth, percent test/control
# procedure.details: Anticancer human tumor K98450-129-R-PDC cell line growth inhibition [RAS]; active means viability on the fitted dose curve at most 10% of control; inactive means the rest;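 note: luminescence used as a proxy for viable cell amount; spheroids exposed to agents for seven days before the viability readout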
# experimental.parameters: second compound 0.1 µM; first compound 10 µM
The reply should be one of these categories: active, inactive

- compound: "CC(Nc1ccc2c(c1)OCCn1cc(N3C(=O)OCC3C(F)F)nc1-2)C(N)=O (stereo unspecified) + C=CC(=O)N1CCN(c2nc(OCC3CCCN3C)nc3c(F)c(-c4nc(N)cc(C)c4C(F)(F)F)c(Cl)cc23)C(C)C1"
  qualitative.label: "inactive"
- compound: "CC(Nc1ccc2c(c1)OCCn1cc(N3C(=O)OCC3C(F)F)nc1-2)C(N)=O (stereo unspecified) + C#Cc1c(F)ccc2cc(O)cc(-c3ncc4c(N5CC6CCC(C5)N6)nc(OCC56CCCN5CC(F)C6)nc4c3F)c12"
  qualitative.label: "inactive"
- compound: "CC(=O)OC12COC1CC(O)C1(C)C(=O)C(O)C3=C(C)C(OC(=O)C(O)C(NC(=O)OC(C)(C)C)c4ccccc4)CC(O)(C(OC(=O)c4ccccc4)C21)C3(C)C (stereo unspecified) + C#Cc1c(F)ccc2cc(O)cc(-c3ncc4c(N5CC6CCC(C5)N6)nc(OCC56CCCN5CC(F)C6)nc4c3F)c12"
  qualitative.label: "inactive"
- compound: "CC(C)NCC(C(=O)N1CCN(c2ncnc3c2C(C)CC3O)CC1)c1ccc(Cl)cc1 (stereo unspecified) + C=CC(=O)N1CCN(c2nc(OCC3CCCN3C)nc3c(F)c(-c4nc(N)cc(C)c4C(F)(F)F)c(Cl)cc23)C(C)C1"
  qualitative.label: "inactive"
- compound: "CC1(O)CCCC1n1c(=O)c(C(F)F)cc2cnc(NC3CCN(S(C)(=O)=O)CC3)nc21 (stereo unspecified) + C=CC(=O)N1CCN(c2nc(OCC3CCCN3C)nc3c(F)c(-c4nc(N)cc(C)c4C(F)(F)F)c(Cl)cc23)C(C)C1"
  qualitative.label: "inactive"

Kindly consider the entry below.
GET /call?item= NC1c2ccccc2OC12CCN(c1cnc3c(N4CCCc5ncccc54)n[nH]c3n1)CC2 (stereo unspecified) + C#Cc1c(F)ccc2cc(O)cc(-c3ncc4c(N5CC6CCC(C5)N6)nc(OCC56CCCN5CC(F)C6)nc4c3F)c12 returns the recorded outcome of this test. active

---

# Tested on: K98450-129-R-PDC complex spheroid growth, percent test/control
# procedure.details: Anticancer human tumor K98450-129-R-PDC cell line growth inhibition [RAS];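 note: luminescence used as a proxy for viable cell amount; spheroids exposed to agents for seven days before the viability readout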
# experimental.parameters: second compound 10 µM; first compound 1 µM; stronger effect = lower value
outcome.measure: viability, T/C (%)
Output spec: scalar in %, unitless text.

Worked cases, answers included:
- molecule: "CC(Nc1ccc2c(c1)OCCn1cc(N3C(=O)OCC3C(F)F)nc1-2)C(N)=O (stereo not given) + C#Cc1c(F)ccc2cc(O)cc(-c3ncc4c(N5CC6CCC(C5)N6)nc(OCC56CCCN5CC(F)C6)nc4c3F)c12"
  unit.annotation: "%"
  viability, T/C: 68.1
- molecule: "CCC(CC)c1cc(NC2CCC(N)C2)n2nccc2n1 (stereo not given) + C#Cc1c(F)ccc2cc(O)cc(-c3ncc4c(N5CC6CCC(C5)N6)nc(OCC56CCCN5CC(F)C6)nc4c3F)c12"
  unit.annotation: "%"
  viability, T/C: 89.4
- molecule: "CC(=O)OC12COC1CC(O)C1(C)C(=O)C(O)C3=C(C)C(OC(=O)C(O)C(NC(=O)OC(C)(C)C)c4ccccc4)CC(O)(C(OC(=O)c4ccccc4)C21)C3(C)C (stereo not given) + C#Cc1c(F)ccc2cc(O)cc(-c3ncc4c(N5CC6CCC(C5)N6)nc(OCC56CCCN5CC(F)C6)nc4c3F)c12"
  unit.annotation: "%"
  viability, T/C: 31.9
- molecule: "CCN1CCN(Cc2ccc(Nc3ncc(F)c(-c4cc(F)c5nc(C)n(C(C)C)c5c4)n3)nc2)CC1 + C#Cc1c(F)ccc2cc(O)cc(-c3ncc4c(N5CC6CCC(C5)N6)nc(OCC56CCCN5CC(F)C6)nc4c3F)c12"
  unit.annotation: "%"
  viability, T/C: 31.9

Please report the recorded viability, T/C for Cc1nc(N2CCC3(CC2)COC(C)C3N)c(CO)nc1Sc1ccnc(N)c1Cl (stereo not given) + C#Cc1c(F)ccc2cc(O)cc(-c3ncc4c(N5CC6CCC(C5)N6)nc(OCC56CCCN5CC(F)C6)nc4c3F)c12 . 31.7

Please report the recorded viability, T/C for Nc1ccn(C2OC(CO)C(O)C2(F)F)c(=O)n1 (stereo not given) + C#Cc1c(F)ccc2cc(O)cc(-c3ncc4c(N5CC6CCC(C5)N6)nc(OCC56CCCN5CC(F)C6)nc4c3F)c12 . 32.4

Please report the recorded viability, T/C for C=CC(=O)N1CCN(c2nc(OCC3CCCN3C)nc3c(F)c(-c4nc(N)cc(C)c4C(F)(F)F)c(Cl)cc23)C(C)C1 (stereo not given) + C#Cc1c(F)ccc2cc(O)cc(-c3ncc4c(N5CC6CCC(C5)N6)nc(OCC56CCCN5CC(F)C6)nc4c3F)c12 . 24.6

Please report the recorded viability, T/C for CC1(O)CCCC1n1c(=O)c(C(F)F)cc2cnc(NC3CCN(S(C)(=O)=O)CC3)nc21 (stereo not given) + C#Cc1c(F)ccc2cc(O)cc(-c3ncc4c(N5CC6CCC(C5)N6)nc(OCC56CCCN5CC(F)C6)nc4c3F)c12 . 67.4

Please report the recorded viability, T/C for CC(C)NCC(C(=O)N1CCN(c2ncnc3c2C(C)CC3O)CC1)c1ccc(Cl)cc1 (stereo not given) + C#Cc1c(F)ccc2cc(O)cc(-c3ncc4c(N5CC6CCC(C5)N6)nc(OCC56CCCN5CC(F)C6)nc4c3F)c12 . 85.9

Please report the recorded viability, T/C for O=C(c1ccc(F)c(F)c1Nc1ccc(I)cc1F)N1CC(O)([C@@H]2CCCCN2)C1 + C#Cc1c(F)ccc2cc(O)cc(-c3ncc4c(N5CC6CCC(C5)N6)nc(OCC56CCCN5CC(F)C6)nc4c3F)c12 . 3.34
